# assayProcedure: Cytotoxicity against human SH-SY5Y cells assessed as cell viability at 100 uM after 24 hrs by MTT assay relative to control
# Assay type: cell-based
# recordedConditions: read-out: Activity
metricName: viability at 24 h, 100 µM (%)
Hi! Could you send only the number? It should be in %, unit omitted.

Note to self: viability at 24 h, 100 µM recorded for "CCN(CCCCCCOc1cc(O)c2c(=O)c3ccccc3sc2c1)Cc1ccccc1N(C)C" was 68.1

###

# assayTarget: Amyloid-beta precursor protein (Homo sapiens) (UniProt P05067)
# Sequence (P05067 whole entry): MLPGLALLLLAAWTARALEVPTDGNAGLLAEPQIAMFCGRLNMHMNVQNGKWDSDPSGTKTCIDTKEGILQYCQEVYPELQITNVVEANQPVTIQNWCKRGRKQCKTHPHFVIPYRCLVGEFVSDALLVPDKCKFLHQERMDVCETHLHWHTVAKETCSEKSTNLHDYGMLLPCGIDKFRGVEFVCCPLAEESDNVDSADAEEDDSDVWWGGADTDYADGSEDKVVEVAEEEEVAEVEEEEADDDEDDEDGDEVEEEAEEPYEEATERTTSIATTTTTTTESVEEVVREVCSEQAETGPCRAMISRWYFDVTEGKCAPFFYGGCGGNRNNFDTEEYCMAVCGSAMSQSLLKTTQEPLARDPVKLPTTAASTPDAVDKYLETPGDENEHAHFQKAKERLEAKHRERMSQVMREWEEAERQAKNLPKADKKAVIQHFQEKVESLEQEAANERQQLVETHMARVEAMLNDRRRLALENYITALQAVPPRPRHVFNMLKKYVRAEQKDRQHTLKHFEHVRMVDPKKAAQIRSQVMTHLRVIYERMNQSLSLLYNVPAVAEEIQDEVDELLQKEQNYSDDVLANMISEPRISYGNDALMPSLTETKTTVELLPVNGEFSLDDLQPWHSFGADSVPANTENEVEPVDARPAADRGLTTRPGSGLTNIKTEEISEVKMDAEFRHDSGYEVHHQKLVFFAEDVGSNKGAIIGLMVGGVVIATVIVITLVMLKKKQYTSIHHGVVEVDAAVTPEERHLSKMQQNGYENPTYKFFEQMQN
# assayProcedure: Inhibition of self-induced amyloid beta (1 to 42) (unknown origin) aggregation at 25 uM measured after 24 hrs by ThT fluorescence assay relative to control
Listing of recorded inhibition by entry.
Hi! Could you send only the number? It should be in %, unit omitted.

// below: answered compounds
Note to self: inhibition recorded for "CCN(CCCCCCOc1cc(O)c2c(=O)c3ccccc3sc2c1)Cc1ccc(N(C)C)cc1" was 76.3

Note to self: inhibition recorded for "CCN(CCCCOc1cc(O)c2c(=O)c3ccccc3sc2c1)Cc1ccccc1OC" was 89.4

Note to self: inhibition recorded for "CCN(CCCOc1cc(O)c2c(=O)c3ccccc3sc2c1)Cc1ccccc1OC" was 68.2

***
Note to self: inhibition recorded for "CCN(CCCOc1cc(O)c2c(=O)c3ccccc3sc2c1)Cc1ccccc1" was 46.9

Note to self: inhibition recorded for "CN(CCCOc1cc(O)c2c(=O)c3ccccc3sc2c1)Cc1ccccc1" was 40.5

###

# assayTarget: Amine oxidase [flavin-containing] B (Homo sapiens, UniProt P27338)
# Sequence (P27338 whole entry): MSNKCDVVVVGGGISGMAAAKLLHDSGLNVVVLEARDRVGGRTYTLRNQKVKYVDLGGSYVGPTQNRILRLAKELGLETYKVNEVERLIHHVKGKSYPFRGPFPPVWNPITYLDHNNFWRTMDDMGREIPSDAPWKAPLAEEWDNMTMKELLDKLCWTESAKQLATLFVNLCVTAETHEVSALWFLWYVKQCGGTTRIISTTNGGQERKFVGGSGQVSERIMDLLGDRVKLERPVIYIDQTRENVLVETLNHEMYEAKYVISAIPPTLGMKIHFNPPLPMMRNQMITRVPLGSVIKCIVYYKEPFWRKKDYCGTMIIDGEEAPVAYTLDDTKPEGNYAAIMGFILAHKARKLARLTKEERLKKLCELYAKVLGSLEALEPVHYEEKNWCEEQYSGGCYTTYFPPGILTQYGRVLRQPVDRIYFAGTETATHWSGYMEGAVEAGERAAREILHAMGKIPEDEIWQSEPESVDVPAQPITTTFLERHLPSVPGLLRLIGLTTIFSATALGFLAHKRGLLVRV
# assayProcedure: Inhibition of recombinant human MAO-B expressed in baculovirus infected BTI insect cells using kynuramine as substrate after 30 mins by fluorimetric method
pIC50: −log10 of the molar value.
Everything with pIC50 lower than 6 is f; everything else, including exactly 6, is t.

QUERY: API: above_or_equal(metric=pIC50, cutoff=6) for item "CCN(CCCOc1cc(O)c2c(=O)c3ccccc3sc2c1)Cc1ccccc1OC"
RESULT: f

QUERY: API: above_or_equal(metric=pIC50, cutoff=6) for item "CCN(CCCOc1cc(O)c2c(=O)c3ccccc3sc2c1)Cc1ccccc1N(C)C"
RESULT: f

QUERY: API: above_or_equal(metric=pIC50, cutoff=6) for item "CN(CCCOc1cc(O)c2c(=O)c3ccccc3sc2c1)Cc1ccccc1"
RESULT: f

QUERY: API: above_or_equal(metric=pIC50, cutoff=6) for item "CCN(CCCCCCOc1cc(O)c2c(=O)c3ccccc3sc2c1)Cc1ccc(N(C)C)cc1"
RESULT: t

QUERY: API: above_or_equal(metric=pIC50, cutoff=6) for item "COc1ccccc1CN(C)CCCCOc1cc(O)c2c(=O)c3ccccc3sc2c1"
RESULT: t

Turning now to a further compound:
QUERY: API: above_or_equal(metric=pIC50, cutoff=6) for item "CCN(CCCCCCOc1cc(O)c2c(=O)c3ccccc3sc2c1)Cc1ccccc1"
RESULT: t

###

# assayProcedure: Cytotoxicity against human SH-SY5Y cells assessed as cell viability at 1 uM after 24 hrs by MTT assay relative to control
# Format: cell-based
# recordedConditions: read-out: Activity
metricName: viability at 24 h, 1 µM
Record the result as a number with its unit.

Note to self: viability at 24 h, 1 µM recorded for "CCN(CCCCCCOc1cc(O)c2c(=O)c3ccccc3sc2c1)Cc1ccccc1N(C)C" was 99.7%
